Provenance of the data: the Human Domainome abundance scans (Beltran et al. 2025)

B1: DnaJ homolog subfamily C member 2, residues 451 to 503; numbered along this chain, Q99543 (parent)
chain: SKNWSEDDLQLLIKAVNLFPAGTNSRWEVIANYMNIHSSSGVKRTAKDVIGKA

Variants of: B1
Measurement Protocol: abundance fitness (aPCA) (normalised: wild type 0, dead -1); higher = more abundant; growth selection in yeast, the domain comes from the species named
Reported Conditions: Homo sapiens
Classify as follows. Reported abundance fitness greater than or equal to -0.3: y. Reported abundance fitness below: n.

{"Mutant Designation": "F19E", "Label Value": "n"}
{"Mutant Designation": "N17I", "Label Value": "n"}
{"Mutant Designation": "K2C", "Label Value": "y"}
{"Mutant Designation": "K2T", "Label Value": "y"}
{"Mutant Designation": "F19T", "Label Value": "n"}
{"Mutant Designation": "A21T", "Label Value": "y"}
{"Mutant Designation": "E28Q", "Label Value": "y"}
{"Mutant Designation": "S38W", "Label Value": "n"}
{"Mutant Designation": "N32Q", "Label Value": "y"}
{"Mutant Designation": "A46W", "Label Value": "n"}
{"Mutant Designation": "G22D", "Label Value": "y"}
{"Mutant Designation": "N3F", "Label Value": "y"}
{"Mutant Designation": "A46M", "Label Value": "y"}
{"Mutant Designation": "V29F", "Label Value": "n"}
{"Mutant Designation": "S5V", "Label Value": "n"}
{"Mutant Designation": "N35D", "Label Value": "n"}
{"Mutant Designation": "I36Y", "Label Value": "y"}
{"Mutant Designation": "W27Q", "Label Value": "n"}
